Hello, the source for this data is patent US20190092852A1, in case you need it.

- TARGET_SYSTEM: T1, human IL-33 (R&D Systems, #3625-IL-010/CF) (human) (UniProt O95760)
- T1 sequence (looked up): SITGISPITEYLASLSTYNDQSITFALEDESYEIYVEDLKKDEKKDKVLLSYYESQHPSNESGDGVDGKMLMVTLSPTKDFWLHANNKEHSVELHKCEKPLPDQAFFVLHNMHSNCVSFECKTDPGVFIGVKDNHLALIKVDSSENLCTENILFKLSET
- ASSAY_NAME: SPR Biacore T200, 37 C
The following binders are listed with their measured t1/2 values.
Your answer should be a number followed by the unit of measure.

INSERT INTO results (binder, readout_type, result) VALUES
  ('H4H9665P (antibody, from another filing, IgG4, V domains shown) VH: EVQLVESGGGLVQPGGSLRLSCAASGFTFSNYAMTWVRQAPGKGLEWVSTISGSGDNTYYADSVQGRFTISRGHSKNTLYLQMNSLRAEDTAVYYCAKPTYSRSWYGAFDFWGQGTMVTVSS VL: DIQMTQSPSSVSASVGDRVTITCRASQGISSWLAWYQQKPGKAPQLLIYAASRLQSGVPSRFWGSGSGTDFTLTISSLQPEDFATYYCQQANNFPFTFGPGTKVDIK', 't1/2', '5 min');

So what's the measured t1/2 for this one? H4H9666P (antibody, from another filing, IgG4, V domains shown) VH: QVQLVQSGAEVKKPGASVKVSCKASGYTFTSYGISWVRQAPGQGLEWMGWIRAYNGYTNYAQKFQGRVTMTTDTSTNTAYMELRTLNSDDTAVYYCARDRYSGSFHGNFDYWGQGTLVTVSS VL: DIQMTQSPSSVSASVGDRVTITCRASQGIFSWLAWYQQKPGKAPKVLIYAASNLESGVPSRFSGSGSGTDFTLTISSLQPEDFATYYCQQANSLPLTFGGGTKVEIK 7 min

Now the binder H4H9670P (antibody, from another filing, IgG4, V domains shown) VH: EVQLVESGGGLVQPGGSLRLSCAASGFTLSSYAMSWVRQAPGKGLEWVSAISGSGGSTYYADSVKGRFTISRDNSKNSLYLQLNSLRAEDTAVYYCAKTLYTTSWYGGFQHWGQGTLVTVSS VL: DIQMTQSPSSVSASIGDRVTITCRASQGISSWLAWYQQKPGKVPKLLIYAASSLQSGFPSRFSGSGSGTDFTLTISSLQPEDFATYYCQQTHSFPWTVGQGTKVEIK 17 min
